tested_target: human A2a adenosine receptor (Homo sapiens (Human))
Sequence (P29274 whole entry): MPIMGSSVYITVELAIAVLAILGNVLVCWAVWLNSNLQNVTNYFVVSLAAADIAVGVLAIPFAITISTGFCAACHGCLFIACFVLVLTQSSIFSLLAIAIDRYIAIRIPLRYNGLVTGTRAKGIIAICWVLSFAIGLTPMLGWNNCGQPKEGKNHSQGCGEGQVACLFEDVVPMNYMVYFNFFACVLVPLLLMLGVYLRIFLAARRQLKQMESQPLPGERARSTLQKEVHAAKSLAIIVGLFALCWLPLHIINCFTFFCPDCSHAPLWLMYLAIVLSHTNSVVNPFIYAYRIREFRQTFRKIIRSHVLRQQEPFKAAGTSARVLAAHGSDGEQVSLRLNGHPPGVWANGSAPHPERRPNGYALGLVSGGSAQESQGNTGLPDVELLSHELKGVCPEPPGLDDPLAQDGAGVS
experiment_notes: A2a binding affinity using radioligand binding, Method (A)
condition_details: Method (A): [3H]SCH58261 filtration binding
Excerpt: The A2a receptor affinity binding assay measured the amount of binding of a tritiated ligand with high affinity for the A2a adenosine receptor to membranes made from HEK293 or CHO cells recombinantly expressing the human A2a adenosine receptor, in the presence of varying concentrations of a compound of the invention. The data were generated using either filtration binding or a homogenous scintillation proximity assay (SPA). Method (A): Measurement of A2a Binding Affinity Using Radioligand Binding […]
quantity_name: pIC50
Here pIC50 is given on a logarithmic scale as minus log10 of the concentration in mol/L.

Recorded pIC50, per entry:
| molecule | value |
| --- | --- |
| Nc1nc(-c2ccccc2)cc2nc(CCN3CCn4c(cnc4C4CCC4)C3)nn12 | 7.40 |
| Cc1nc2c(N)nc(-c3ccccc3)cn2n1 | 6.95 |
| Cc1c(-c2ncco2)nc(N)n2nc(CCN3Cc4nnn(C(C)C)c4C(C)C3)nc12 (single isomer, unassigned) [Example 17.8-1] | 9.15 |
| Cc1c(-c2ccc(F)c(F)c2)nc(N)c2nc(Cc3ccccc3)nn12 | 7.55 |
| Cc1c(-c2ncco2)nc(N)n2nc(CCN3CCc4c(nnn4CC(F)(F)F)C3)nc12 | 8.89 |

**Query** Any idea what its pIC50 is? The molecule is Cc1c(-c2ncco2)nc(N)n2nc(CCN3Cc4cn(CC(C)(C)O)nc4C3)nc12
**Result** 8.03

**Query** Let us now turn to Nc1nc(-c2ncco2)cn2nc(Cc3ccccc3)nc12
**Result** 8.51

**Query** Same thing, different molecule: Cc1c(-c2ncco2)nc(N)n2nc(CNCc3ccc(C(C)(C)O)cc3)nc12
**Result** 8.96

**Query** Same read-out for Cc1c(-c2ncco2)nc(N)n2nc(Cc3ccc([C@H]4C[C@](C)(O)C4)cc3)nc12 ?
**Result** 7.92

**Query** Also Cc1c(-c2nccs2)nc(N)c2nc(Cc3ccccc3)nn12 , if possible.
**Result** 8.89
